target: CB1 (rCB1) (Rattus norvegicus, UniProt P20272); assay: Single-point radioligand displacement screen; assay type: binding; conditions: 10 µM, 1 µM or 300 nM by cell colour (not visible)
Sequence (P20272 whole entry): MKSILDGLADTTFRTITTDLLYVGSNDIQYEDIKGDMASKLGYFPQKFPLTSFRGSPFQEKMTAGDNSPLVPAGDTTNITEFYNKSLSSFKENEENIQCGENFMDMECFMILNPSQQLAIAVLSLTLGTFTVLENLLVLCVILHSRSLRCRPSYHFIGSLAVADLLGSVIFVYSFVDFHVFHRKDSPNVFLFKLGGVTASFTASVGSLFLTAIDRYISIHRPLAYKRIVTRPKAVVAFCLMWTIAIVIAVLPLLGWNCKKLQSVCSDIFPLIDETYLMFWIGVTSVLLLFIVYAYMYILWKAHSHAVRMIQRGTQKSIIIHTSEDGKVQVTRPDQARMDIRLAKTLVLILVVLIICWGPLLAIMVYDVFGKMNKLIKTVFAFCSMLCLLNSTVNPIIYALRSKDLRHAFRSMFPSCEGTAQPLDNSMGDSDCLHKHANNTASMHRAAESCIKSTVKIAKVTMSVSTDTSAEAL
Below, each entry is listed alongside its reported % 1H-CP-55,940 displacement (mean) from single point screen.
# value in %; strip the unit string

Examples with answers:
{"MOLECULE": "O=C1C(=O)N(C23CC4CC(CC(C4)C2)C3)C(=O)N1CC1CCC(C(F)(F)F)CC1 (centres unmarked)", "NUMERIC_RESULT": 47.91}
{"MOLECULE": "COC(=O)C(NC(=O)c1cn(Cc2ccccc2)nn1)c1cccs1 (centres unmarked)", "NUMERIC_RESULT": 4.29}

Prompt line: Give a short answer stating reported % 1H-CP-55,940 displacement (mean) from single point screen for O=C1CN(C(=O)c2ccc(Cl)c3cccnc23)CN1Cc1ccccc1 .
Response line: 15.10

Prompt line: Give a short answer stating reported % 1H-CP-55,940 displacement (mean) from single point screen for N#Cc1cccc(-n2ccc(C(=O)OCC3CSc4ccccc4O3)n2)c1 (centres unmarked) .
Response line: 30.46

Prompt line: Give a short answer stating reported % 1H-CP-55,940 displacement (mean) from single point screen for Cc1c(C(=O)OCC2COc3ccccc3O2)cnn1Cc1ccccc1 (centres unmarked) .
Response line: 35.36

Prompt line: Give a short answer stating reported % 1H-CP-55,940 displacement (mean) from single point screen for O=C(c1cn(-c2cccc(C(F)(F)F)c2)nn1)N1CC2(CCC2)C1C1CCCO1 (centres unmarked) .
Response line: 25.67

Prompt line: Give a short answer stating reported % 1H-CP-55,940 displacement (mean) from single point screen for Cc1cc(C(=O)NC(c2ccccc2)c2ccco2)nn1-c1cccc(F)c1 (centres unmarked) .
Response line: 39.72

Prompt line: Give a short answer stating reported % 1H-CP-55,940 displacement (mean) from single point screen for COC(=O)[C@@H](NC(=O)c1cc(C)n(-c2cccc(Cl)c2)n1)c1ccc(OC)cc1 .
Response line: 10.83
